- test.name: relative permittivity at various frequencies (dimensionless)
- recorded.conditions: 298.15 K; 100 kPa; Liquid; Frequency=1 MHz; Parallel plate capacitor
Each record here notes measured relative permittivity.
The reply should be a number, written without any unit.

Worked cases, relative permittivity given:
INSERT INTO results (compound, parameter_measured, endpoint_result) VALUES
  ('CCCCCO', 'relative permittivity', 15),
  ('CCCC(C)O (configuration not stated)', 'relative permittivity', 13.54),
  ('CCC(O)CC', 'relative permittivity', 13.21),
  ('CC(C)C(C)O (configuration not stated)', 'relative permittivity', 11.98),
  ('CCC(C)(C)O', 'relative permittivity', 5.63);

Problem: Item CCC(C)CO (configuration not stated) has what recorded relative permittivity?
Result: 15.52

Problem: Quick one: relative permittivity for CC(C)CCO ?
Result: 15.09

###

- recorded.conditions: 298.15 K; 101.33 kPa; Liquid; Vibrating tube method
parameter.measured: mass density (kg/m3)
Please reply with the bare figure in kg/m3 and do not write the unit itself.

Example compounds with recorded mass density:
INSERT INTO assay_data (compound, display_unit, endpoint_result) VALUES
  ('CCCCCO', 'kg/m3', 810.89),
  ('CCC(C)(C)O', 'kg/m3', 804.31),
  ('CC(C)C(C)O (configuration not stated)', 'kg/m3', 813.09),
  ('CC(C)CCO', 'kg/m3', 804.24),
  ('CCCC(C)O (configuration not stated)', 'kg/m3', 806.11);

Problem: Would you kindly share the measured mass density for CCC(O)CC ?
Result: 815.62

Problem: Entry under review: CCC(C)CO (configuration not stated) . Reported mass density?
Result: 814.98

###

- recorded.conditions: 308.15 K; 101.33 kPa; Liquid; Vibrating tube method
Below, each of the compounds is paired with its reported mass density value.
I only need the number, in kg/m3, no unit after it.

INSERT INTO assay_data (compound, endpoint_result) VALUES
  ('CCCCCO', 803.7),
  ('CCC(C)CO (configuration not stated)', 807.63),
  ('CCC(C)(C)O', 795.16);

Problem: Given the entry CC(C)C(C)O (configuration not stated) , report its measured mass density.
Result: 804.35

Problem: Record request: mass density value, item CC(C)CCO
Result: 796.95

Problem: Form field: reported mass density of CCCC(C)O (configuration not stated)
Result: 798

Problem: Fill in: mass density of CCC(O)CC is ___
Result: 806.9

###

- test.name: relative permittivity at various frequencies (dimensionless)
- recorded.conditions: 308.15 K; 100 kPa; Liquid; Frequency=1 MHz; Parallel plate capacitor
parameter.measured: relative permittivity
// keep it numeric: no unit symbol after the value

INSERT INTO measurements (compound, endpoint_result) VALUES
  ('CC(C)C(C)O (configuration not stated)', 10.78),
  ('CC(C)CCO', 13.73),
  ('CCC(O)CC', 11.39),
  ('CCCCCO', 13.51),
  ('CCC(C)(C)O', 5.23),
  ('CCCC(C)O (configuration not stated)', 12.08);

Problem: // query relative permittivity value for entry CCC(C)CO (configuration not stated)
Result: 14.07
